target: ER in MCF-7 cells (Homo sapiens (Human), UniProt P03372); experiment: In-cell Western (ICW) ER degradation assay in MCF-7 cells; type: cell-based; conditions: MCF-7, ER degradation, 16 hrs treatment; read-out: MCF7 DC50
Sequence (P03372 whole entry): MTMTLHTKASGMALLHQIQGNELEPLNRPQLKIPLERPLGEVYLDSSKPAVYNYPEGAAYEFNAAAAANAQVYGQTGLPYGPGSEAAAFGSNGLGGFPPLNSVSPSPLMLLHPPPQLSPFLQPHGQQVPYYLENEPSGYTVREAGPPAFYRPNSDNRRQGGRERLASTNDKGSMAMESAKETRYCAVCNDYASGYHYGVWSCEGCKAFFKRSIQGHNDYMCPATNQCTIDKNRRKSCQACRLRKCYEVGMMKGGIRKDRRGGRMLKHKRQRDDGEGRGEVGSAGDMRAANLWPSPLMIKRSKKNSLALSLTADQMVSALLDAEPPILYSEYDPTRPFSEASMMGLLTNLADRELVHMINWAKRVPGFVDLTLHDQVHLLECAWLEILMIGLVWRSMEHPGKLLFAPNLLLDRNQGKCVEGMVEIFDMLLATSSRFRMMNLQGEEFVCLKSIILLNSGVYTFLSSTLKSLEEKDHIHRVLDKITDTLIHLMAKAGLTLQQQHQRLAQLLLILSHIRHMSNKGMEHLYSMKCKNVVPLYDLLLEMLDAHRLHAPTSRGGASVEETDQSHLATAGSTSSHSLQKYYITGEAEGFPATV
READOUT_TYPE: DC50

Here are 5 compounds together with their reported answers.
COMPOUND	DC50
O=C1CC[C@H](NC(=O)c2ccc3c(n2)OC[C@H]2CN(C[C@H]4COC5(CCN(c6ccc([C@@H]7c8ccc(O)cc8CC[C@@H]7c7ccccc7)cc6)CC5)C4)CCN32)C(=O)N1 (single isomer, unassigned)	1 to 10 nM
O=C1CC[C@H](NC(=O)c2ccc3c(n2)OC[C@H]2CN(C[C@@H]4COC5(CCN(c6ccc([C@H]7c8ccc(O)cc8CC[C@H]7c7ccccc7)cc6)CC5)C4)CCN32)C(=O)N1 (single isomer, unassigned)	1 to 10 nM
COc1cc(N2CCC(CN3CCC(c4ccc(N[C@H]5CCC(=O)NC5=O)c(F)c4)CC3)CC2)c(F)cc1[C@@H]1c2ccc(O)cc2CC[C@@H]1c1ccccc1	< 1 nM
O=C1CC[C@H](N2Cc3c(ccc4c3OCC43CCN(CC4CC5(CCN(c6ccc([C@@H]7c8ccc(O)cc8CC[C@@H]7c7ccccc7)cn6)CC5)C4)CC3)C2=O)C(=O)N1	< 1 nM
O=C1CC[C@H](N2Cc3c(ccc4c3OCC43CCN(CC4CC5(CCN(c6cnc(C7c8ccc(O)cc8CCC7c7ccccc7)cn6)CC5)C4)CC3)C2=O)C(=O)N1 (stereo partly drawn)	< 1 nM

Recorded DC50 of `COc1cc(N2CCC3(CC2)CC(CN2CCC4(CC2)COc2nc(C(=O)N[C@H]5CCC(=O)NC5=O)ccc24)C3)c(F)cc1[C@@H]1c2ccc(O)cc2CC[C@@H]1c1ccccc1` , please.
< 1 nM

Fill blank: measured DC50 of the compound COc1cc(N2CC3(CCC(CN4CCN5c6ccc7c(c6OC[C@H]5C4)CN([C@H]4CCC(=O)NC4=O)C7=O)CC3)C2)c(F)cc1[C@H]1c2ccc(O)cc2CC[C@H]1c1ccccc1 (single isomer, unassigned) is ____.
10 to 100 nM

Entry COc1c([C@H]2c3ccc(O)cc3CC[C@H]2c2ccccc2)ccc(N2CCC(CN3CCN4c5cc6c(cc5OC[C@@H]4C3)C(=O)N([C@H]3CCC(=O)NC3=O)C6)CC2)c1F (single isomer, unassigned) has what DC50?
10 to 100 nM

DC50 lookup needed for COc1cc(N2CC3(CC(CN4CCC5(CC4)COc4c5ccc5c4CN(C4CCC(=O)NC4=O)C5=O)C3)C2)c(F)cc1[C@@H]1c2ccc(O)cc2CC[C@@H]1c1ccccc1 (stereo partly drawn) , thanks.
< 1 nM

Item under review: `COc1cc(N2CCC(CN3CCC4(CC3)COc3c4ccc4c3CN([C@H]3CCC(=O)NC3=O)C4=O)CC2)ccc1[C@@H]1c2ccc(O)cc2CC[C@@H]1c1ccccc1` . Reported DC50?
< 1 nM

Param item = `COc1cc(N2CCC3(CC[C@@H](CN4CCC5(CC4)COc4c5cc(C)c5c4CN([C@H]4CCC(=O)NC4=O)C5=O)CO3)CC2)c(F)cc1[C@@H]1c2ccc(O)cc2CC[C@@H]1c1ccccc1` ; retrieve measured DC50.
< 1 nM

// query DC50 value for entry `COc1cc(N2CC3(CCC(CN4CCC5(CC4)COc4cc6c(cc45)CN([C@H]4CCC(=O)NC4=O)C6=O)CC3)C2)c(F)cc1[C@@H]1c2ccc(O)cc2CC[C@@H]1c1ccccc1`
< 1 nM

Please give the measured DC50 for this compound: COc1cc(N2CCC3(CC2)C[C@H](CN2CCN4c5cc6c(cc5OC[C@@H]4C2)C(=O)N([C@H]2CCC(=O)NC2=O)C6)CO3)ccc1[C@@H]1c2ccc(O)cc2CC[C@@H]1c1ccccc1 (single isomer, unassigned)
< 1 nM

// query DC50 value for entry `O=C1CC[C@H](N2Cc3cc4c(cc3C2=O)OC[C@@H]2CN(C[C@H]3COC5(C3)CN(c3ccc([C@@H]6c7ccc(O)cc7CC[C@@H]6c6ccccc6)cc3)C5)CCN42)C(=O)N1`
< 1 nM

What measured DC50 goes with `COc1cc(N2CCC3(CC2)CC(CN2CCN4c5ccc(C(=O)N[C@H]6CCC(=O)NC6=O)nc5OC[C@@H]4C2)C3)c(F)cc1[C@@H]1c2ccc(O)cc2CC[C@@H]1c1ccccc1` ?
1 to 10 nM
